# Test system: CP237
# PROTOCOL TEXT: qHTS profiling for inhibitors of Plasmodium falciparum proliferation (AID 504749); further: nearly all actives have a fitted effect of over 60% in size
# DETAILS: P. falciparum in erythrocytes, SYBR Green DNA, 72 h; series mostly up to 28.7 µM
Records with an inconclusive call do not appear. Activity calls are given as the source filed them. The call rests on the fitted dose curve; in most records, active means well fitted inhibition curve with a large enough effect; inconclusive means small, poorly fitted or top-dose-only effect; inactive means flat fitted curve, though single readings scatter.
Hi! Could you answer with just one of these? active, inactive

Hey, what did the test say about `CS(=O)(=O)c1ccc(C2=C(c3ccccc3)C(=O)OC2)cc1` ?
inactive

// return assay outcome for O=C1C(CCC(O)c2ccc(F)cc2)C(c2ccc(O)cc2)N1c1ccc(F)cc1 (centres undefined)
inactive

What did this assay record as the result for `NS(=O)(=O)c1cc(Cl)c(Cl)c(S(N)(=O)=O)c1` ?
inactive

Test call for this molecule, please: CN1CC(=O)N2C(Cc3c([nH]c4ccccc34)[C@H]2c2ccc3c(c2)OCO3)C1=O (some centres undefined)
inactive

In this assay, the call recorded for `N#Cc1c(N(CC(=O)O)CC(=O)O)sc(C(=O)O)c1CC(=O)O` was what?
inactive

What outcome does the record of this test show for COc1ccnc(CS(=O)c2nc3ccc(OC(F)F)cc3[nH]2)c1OC (centres undefined) ?
inactive

What outcome does the record of this test show for Clc1ccc(COC(Cn2ccnc2)c2ccc(Cl)cc2Cl)c(Cl)c1 (centres undefined) ?
active

Entry `O=C(O)c1nc(=O)[nH]c(=O)[nH]1` : call = ?
inactive

Record lookup: outcome of this test for CN1CCN2c3ncccc3Cc3ccccc3C2C1 (centres undefined) ?
inactive

---

# PROTOCOL TEXT: Quantitative High-Throughput drug screen in 47 multiple myeloma cell lines against the NCATS MIPE library collection: Delta47_JCRB cell viability assay (AID 1918925; further: nearly all actives have a fitted effect of over 45% in size)
# DETAILS: Delta47 myeloma viability, CellTiter-Glo ATP, 48 h; series mostly up to 45.8 µM
Records with an inconclusive call do not appear. Calls of active or inactive are those of the source. The call rests on the fitted dose curve; in most records, active means well fitted cell-killing curve with a large enough effect; inconclusive means small, poorly fitted or top-dose-only effect, or effect the other way; inactive means no such curve, though single readings can be large or run the other way.
Lab note: assign the record to one of active, inactive

# fetch the recorded call for `O=C(C=Cc1ccc(O)cc1)c1ccc(O)cc1O` here
active

Give the logged outcome of this assay for the following compound: `Cn1c(=O)c(-c2c(Cl)cccc2Cl)cc2cnc(Nc3cccc(C(=O)O)c3)nc21`
inactive

Lab log entry: `Cc1[nH]c(C=C2C(=O)Nc3ccc(S(=O)(=O)N(C)c4cccc(Cl)c4)cc32)c(C)c1C(=O)N1CCN(C)CC1` — outcome as called in the assay?
active

Please indicate how the test categorized `CCCCCCCCCCCCCC(=O)N[C@H](CO)[C@H](O)c1ccc([N+](=O)[O-])cc1` .
active

Record request — test call for `CC(C)C[C@@H](C(=O)N[C@H](C(=O)OC1CCCC1)c1ccccc1)[C@H](O)C(=O)NO`
active

Which outcome did this test record for the compound CN1CC(=O)N2C(Cc3c([nH]c4ccccc34)[C@H]2c2ccc3c(c2)OCO3)C1=O (stereo partly drawn) ?
inactive

Each compound tested received a call. Report the one for `C=C1[C@H](n2cnc3c(=O)[nH]c(N)nc32)C[C@H](O)[C@H]1CO` .
active

State the result this test recorded for CCNC(=O)CCCC=CC[C@@H]1[C@H](C=CC(O)CCc2ccccc2)[C@@H](O)C[C@@H]1O (stereo partly drawn) .
inactive

Please indicate how the test categorized `CCCCCCCCCCCCCCCC(=O)O[C@H]1[C@@H](O)[C@@H](O)[C@@H]([C@H](NC(=O)[C@@H]2C[C@@H](CCC)CN2C)[C@H](C)Cl)O[C@@H]1SC` .
inactive

Hello, I am checking results. What call was entered for `O=C1NC(=O)C(c2cnc3ccccn23)=C1c1cn2c3c(cccc13)CN(C(=O)N1CCOCC1)CC2` ?
active

Entry `CC(C)(C)c1nc(-c2cccc(NS(=O)(=O)c3c(F)cccc3F)c2F)c(-c2ccnc(N)n2)s1` : call = ?
active

Could you check what this test reported for `COc1ccc(-c2cc(=O)c3c(O)cc(O[C@@H]4O[C@H](CO[C@@H]5O[C@@H](C)[C@H](O)[C@@H](O)[C@@H]5O)[C@@H](O)[C@H](O)[C@@H]4O)cc3o2)cc1O` ?
active

For `CN1CCC[C@H]1CCO[C@](C)(c1ccccc1)c1ccc(Cl)cc1` , which call appears in the assay record?
active

Please share the test call associated with `CNC(=O)c1cc(COc2nnc(Nc3ccc(Cl)cc3)c3ccoc23)ccn1` .
inactive

For `COc1cc2c(cc1Cc1cccc(Cl)c1F)c(=O)c(C(=O)O)cn2[C@H](CO)C(C)C` , which call appears in the assay record?
active

Write down the call the test reported for this compound. Item: O=C(CCCN1CCN(c2ccc(F)cc2)CC1)NC1c2ccccc2CSc2ccccc21 (stereo not drawn)
active

Assay result, entry `NC(=O)c1noc([C@H](CCCC2CCCCC2)CC(=O)NO)n1` — outcome?
active

For CC1(C)OC2CC3C4CC(F)C5=CC(=O)C=CC5(C)C4C(O)CC3(C)[C@]2(C(=O)CO)O1 (stereo partly drawn) , which call appears in the assay record?
inactive
